Attribution: paper PMC5540273

Test system: PRKG2;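 note: KINOMEscan kinase panel screen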
study_conditions: concentration: 1 μM, replicates: in singlicate; n = 1
Please provide measured %Inh for the entries that follow.
The answer is to be given in %; state only the numeric part.

Enter reported %Inh observed with PRKG2 for c1ccc(-c2ccc3c(-c4ccnc(Nc5ccc6c(c5)OCCO6)n4)cnn3n2)cc1 [GW818941]
0

Enter reported %Inh observed with PRKG2 for CS(=O)(=O)CCNCc1ccc(-c2ccc3ncnc(Nc4ccc(OCc5ccccc5)c(Cl)c4)c3c2)o1.Cl [GW574783]
0

Enter reported %Inh observed with PRKG2 for Nc1nc(-c2cccnc2)c(-c2ccnc3ccccc23)s1 [GW684083]
0

Enter reported %Inh observed with PRKG2 for O=c1cc(N2CCOCC2)nc2n(Cc3cccc(Cl)c3)ccn12 [GSK2296823]
0

Enter reported %Inh observed with PRKG2 for CSc1nn2c(=O)cc(N3CCOCC3)nc2n1Cc1cccc(Cl)c1Cl [GSK2347225]
0

Enter reported %Inh observed with PRKG2 for CC(C)(C)c1ccc(-n2cnc3c(N)ncnc32)cc1 [SKF-97263]
0

Enter reported %Inh observed with PRKG2 for CC(C)N1CCC(n2cnc(-c3ccc(F)cc3)c2-c2ccnc(N)n2)CC1 [SB-223132]
2

Enter reported %Inh observed with PRKG2 for Nc1n[nH]c2nnc(-c3ccccc3)cc12 [SB-517389]
0

Enter reported %Inh observed with PRKG2 for `Clc1cc(Nc2ncnc3cc[nH]c23)ccc1OCc1ccccn1`
22

Enter reported %Inh observed with PRKG2 for Cl.c1ccc(Cn2ccc3cc(Nc4ncnc5ccccc45)ccc32)cc1 [GW275568]
28

Enter reported %Inh observed with PRKG2 for Clc1cccc(-c2nc(Nc3ccncc3)c3ccccc3n2)c1 [GW873004]
7

Enter reported %Inh observed with PRKG2 for CC(C)(C)OC(=O)NC1CCCN(c2cc(-c3ccc4c(N)n[nH]c4c3)nc(N)n2)C1 (stereo not shown) [GSK2286096]
70

Enter reported %Inh observed with PRKG2 for Cc1ccc(C)c(NC(=O)NCCNc2ccnc(Nc3ccc(F)cc3)n2)c1 [GSK1379878]
0

Enter reported %Inh observed with PRKG2 for `CN1c2ccc(-c3ccc(C(=O)NCCO)cc3)cc2-c2[nH]ncc2S1(=O)=O`
9

Enter reported %Inh observed with PRKG2 for CC(=O)Nc1n[nH]c2ncc(-c3ccccc3)cc12 [SB-548492]
20

Enter reported %Inh observed with PRKG2 for FC(F)(F)c1ccc(-c2nn3ncccc3c2-c2ccnc(Nc3cccc(C(F)(F)F)c3)n2)cc1 [GW828205]
16

Enter reported %Inh observed with PRKG2 for Cl.Fc1ccccc1COc1ccc(Nc2ncnc3ccc(-c4nnc(C(F)(F)F)o4)cc23)cc1Cl [GW424170]
4

Enter reported %Inh observed with PRKG2 for Nc1nc(-c2ccc3c(N)n[nH]c3c2)cc(N2CCC[C@@H](C(=O)Nc3ccccc3)C2)n1.O=C(O)C(F)(F)F.O=C(O)C(F)(F)F [GSK2288359]
29

Enter reported %Inh observed with PRKG2 for `O=C(NCCCN1CCCC1=O)c1cnc(NCc2cc(Cl)ccc2Cl)nc1NC1CCNCC1`
0

Enter reported %Inh observed with PRKG2 for COc1ccc(Nc2nccc(N3CCC(NC(=O)Nc4ccc5c(c4)OCO5)C3)n2)cc1 (stereo not shown) [GSK1379745]
0

Enter reported %Inh observed with PRKG2 for Cc1cc(N2CCC(NS(=O)(=O)c3ccc(F)cc3)CC2)nc(Nc2cccc(C#N)c2)n1.O=C(O)C(F)(F)F [GSK1653537]
0

Enter reported %Inh observed with PRKG2 for Cl.Cl.c1ccc(-c2cc3ccncc3cc2OC2CCNCC2)cc1 [GSK1122999]
0

Enter reported %Inh observed with PRKG2 for COc1ccc(Nc2nccc(N3CCC(NC(=O)c4cccc(NC(C)=O)c4)C3)n2)cc1 (stereo not shown) [GSK1379732]
11

Enter reported %Inh observed with PRKG2 for Fc1cccc(COc2ccc(Nc3ncnc4sc(-c5ccc[nH]5)cc34)cc2Cl)c1 [GW707818]
10

Enter reported %Inh observed with PRKG2 for Cl.c1ccc(Cn2ncc3cc(Nc4ncnc5ccccc45)ccc32)cc1 [GW273749]
0
